System: UACC-62 melanoma
experimentNotes: NCI tumour cell line growth inhibition, 48 h
// label = MET if TGI is not less than 30 µM, otherwise NOT MET

{"columns": ["molecule", "answerLabel"],
 "data": [
  ["COc1cc(C)cc2c1C(=O)C(Br)=CC2=O", "NOT MET"],
  ["CCOC(OCC)c1ccc(/C=C/c2cc(OC)c(OC)c(OC)c2)cc1", "MET"],
  ["CC1(C)C=[N+]([O-])C(C)(C)N1", "MET"],
  ["c1ccc2cc(OCC3CO3)c(OCC3CO3)cc2c1 (centres undefined)", "NOT MET"],
  ["COc1ccc(-c2c3c(n(C4OC(CO)C(O)C(O)C4O)c(=S)c2C#N)CC(C)(C)CC3=O)cc1 (centres undefined)", "MET"],
  ["Cc1ccccc1-n1c(/C=C\\c2ccccn2)nc2ccccc2c1=O", "MET"],
  ["Oc1ccc(Br)cc1/C=N/NC(=S)NC12CC3CC(CC(C3)C1)C2", "NOT MET"],
  ["CCCC(=O)NC(c1ccc2c(c1)OCO2)c1ccc2cccnc2c1O (centres undefined)", "NOT MET"],
  ["CCOC(=O)CNC(=O)CCCn1c(=O)c2c3ccccc3n(C)c2n2nnc(-c3ccccc3)c12", "NOT MET"],
  ["CCCCOP(=O)(OCCCC)/C(C#N)=C/c1ccco1", "MET"]
]}

Qu. Is the recorded value of TGI equal to or greater than 30 µM for this molecule? Oc1ccc(/C=N/Nc2nc3ccccc3s2)c(O)c1
Ans. NOT MET

Qu. Is the recorded value of TGI equal to or greater than 30 µM for this molecule? COC(=O)[C@@H](Cc1c[nH]c2ccccc12)NC(=O)/C=C/c1ccccc1
Ans. MET

Qu. Is the recorded value of TGI equal to or greater than 30 µM for this molecule? CCCCCCCCCCCCOC1C(C(COC2OC(C(O)CN3CCCCC3)C3OC(C)(C)OC23)NC(=O)Nc2ccccc2)OC2OC(C)(C)OC21 (centres undefined)
Ans. MET

----------
Test system: HCC-2998 colon
experimentNotes: NCI tumour cell line growth inhibition, 48 h
Would you mind telling me the reported TGI of each entry?

In the examples that follow, each entry is paired with its recorded TGI.
{"columns": ["compound", "targetEntity", "TGI"],
 "data": [
  ["Nc1nc(N)nc(-c2cnccn2)n1", "HCC-2998 colon", "> 100 µM"],
  ["CC(=N/NC(=S)Nc1c(C)n(C)n(-c2ccccc2)c1=O)/C(C)=N\\NC(=S)Nc1c(C)n(C)n(-c2ccccc2)c1=O", "HCC-2998 colon", "> 100 µM"],
  ["NC(=O)c1csc(CCCCCCc2nc(C(N)=O)cs2)n1", "HCC-2998 colon", "> 100 µM"],
  ["O=C1C(Cl)=C(Nc2cccc(C(F)(F)F)c2)C(=O)N1Cc1ccccc1Cl", "HCC-2998 colon", "28 µM"],
  ["Cn1cnc2c(OCC3CCCCC3)nc(N)nc21", "HCC-2998 colon", "> 100 µM"]
]}

// moving on: another record for TGI
Qu. So what's the measured TGI for this one? CC(=O)c1c(O)ccc2c1CC(CC=O)O2 (stereo unspecified)
Ans. > 100 µM

----------
System: SN12C renal
experimentNotes: NCI tumour cell line growth inhibition, 48 h
Would you mind telling me the reported TGI of each entry?

Parameters: items (list). Returns: TGI for each item.
1. COc1cc(/C=C2/SC(c3ccccc3)N(c3ccc(Cl)cc3)C2=O)cc(OC)c1OC (stereo not given)
2. O=c1oc2cc(O)ccc2c(O)c1C(c1ccccn1)c1c(O)c2ccc(O)cc2oc1=O
3. CCCC[P+](c1ccccc1)(c1ccccc1)c1ccccc1
4. Fc1ccc(F)c(C2SCc3nc4ccccc4n32)c1 (stereo not given)
5. O=C(N/C(=C\c1ccc(Br)cc1)c1nc2ccccc2s1)c1ccccc1
6. COc1cc(C)cc2c1C(=O)C(Br)=CC2=O
7. Cn1c2ccccc2c(=O)c2c(O)cc3c(c21)C=CC1(CCCC1)O3
8. O=C(Nc1cccc(C(F)(F)F)c1)c1cccc(NC2=C(Cl)C(=O)N(Cc3ccccc3)C2=O)c1

Ans.
["> 100 µM", "> 100 µM", "> 100 µM", "> 100 µM", "> 100 µM", "30.9 µM", "> 100 µM", "> 100 µM"]

Parameters: items (list). Returns: TGI for each item.
1. COC(=O)c1c2c(c(C)[n+]([O-])c1C)C(=O)C(NCc1cccc(OC)c1)=CC2=O
2. CN1CC2=C(NC(=S)NC2c2ccc(Cl)cc2)/C(=C/c2ccc(Cl)cc2)C1 (stereo not given)

Ans.
1: 4.94 µM; 2: 36.4 µM
